# assay target: T1, PUF4 RNA-binding domain (Saccharomyces cerevisiae, UniProt P25339 537-888)
# T1 sequence: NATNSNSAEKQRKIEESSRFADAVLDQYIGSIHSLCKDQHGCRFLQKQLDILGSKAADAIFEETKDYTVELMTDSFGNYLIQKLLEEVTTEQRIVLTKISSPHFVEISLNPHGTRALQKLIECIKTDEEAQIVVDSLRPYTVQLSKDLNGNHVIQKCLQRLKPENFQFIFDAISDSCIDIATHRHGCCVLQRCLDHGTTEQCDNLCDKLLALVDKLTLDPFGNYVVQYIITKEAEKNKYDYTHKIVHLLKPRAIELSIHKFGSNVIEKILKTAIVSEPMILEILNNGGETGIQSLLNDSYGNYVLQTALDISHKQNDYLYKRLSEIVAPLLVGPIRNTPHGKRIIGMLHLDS
# assay notes: Mg; RNA-MaP; 20 mM Na-HEPES pH 7.4, 30 mM KOAc, 0.75 mM MgCl2, 0.1% Tween-20, 5% glycerol, 0.1 mg/mL BSA, 2 mM DTT; 25 C; 0.0125-409.6 nM protein
# stated conditions: tags: N-His6-TEV cleaved; C-SNAP kept, Cy3B-labelled; label: tethered on chip by stalled RNA polymerase
pKd: −log10 of the molar value.
Given measured pKd, output t if it is greater than or equal to 7 and f if not.

Look over these answered cases.
binder | label
Id_ii_S4_P4E.3_K4.2_C4.2_[C-2G]_[T-1C]_H4.2_A4.1_F4.1_T4.2_[G10T]_[T11C] (ssRNA) RNA: UUUGACAACUGAUCGUUCUUUCUGCUAUAUAUUAUCUUCUUUCUCGAUCAGUUGUCUUU | t
ACAAACAGUAUAUAUACCACAAAC (ssRNA) [Id_ii_S3_P3E.3_K3.2_C3.2_[C-2A]_[T-1G]_H3.2_A3.1_F3.1_T3.2_[T9C]_[A10C]] | f
UCUCUUUCUAUAUAUACCUCUCUU (ssRNA) [Id_ii_S1_P3E.3_K3.2_C3.2_[C-2T]_[T-1C]_H3.2_A3.1_F3.1_T3.2_[T9C]_[A10C]] | f
UCUCUUUGUACAAUAUCUCUU (ssRNA) [Ib_S1_P4E.1_K4.1_C4.1_H4.1_A4.1_[T5C]_[T7A]_F4.1_T4.1] | t

API: the following record is the query input.
[Q] Given Ic_S4_P4E.1_K4.1_C4.1_H4.1_A4.1_[A6C]_[T7C]_F4.1_[A9G]_T4.1 (ssRNA) RNA: UUUGACAACUGAUCGUUCUUUCUUGUAUCCUGUUCUUUCUCGAUCAGUUGUCUUU , state whether its pKd is at least 7.
[A] t
